Attribution: patent US10369166B2

# System: Ebola virus
# EXPERIMENTAL CONTEXT: in vivo
OBSERVATION TYPE: residual viral load after the product (sequential) (pfu/ml)

# COMPOUND, MEASURED RESULT
records = [
    ("COc1cc(/C=C/C(=O)CC(=O)/C=C/c2ccc(O)c(OC)c2)ccc1O", 25000),
    ("CC1(C)CC[C@]2(C(=O)O)CC[C@]3(C)C(=CC[C@@H]4[C@@]5(C)CC[C@H](O)C(C)(C)[C@@H]5CC[C@]43C)[C@@H]2C1", 1875),
    ("O=C1O[C@H]([C@@H](O)CO)C(O)=C1O", 50000),
    ("C[C@H]1[C@H](C)CC[C@]2(C(=O)O)CC[C@]3(C)C(=CC[C@@H]4[C@@]5(C)CC[C@H](O)C(C)(C)[C@@H]5CC[C@]43C)[C@H]12", 12500),
    ("COc1ccc2cc3[n+](cc2c1OC)CCc1cc2c(cc1-3)OCO2", 235),
    ("[O]=[V]([O-])([O-])[O-] [VANADATE]", 212),
    ("O=c1c(O)c(-c2ccc(O)c(O)c2)oc2cc(O)cc(O)c12", 469),
]
